System: hT40, dGA, dGAE and truncated tau fragments
Procedure details: Binding ELISA / epitope mapping of anti-tau scAbs with truncated tau proteins and 13mer peptides
Parameters: species or system human
Run conditions: second Table 25; mAb format

- Molecule: "3bG4: N-terminal anti-tau clone, Table 6; SEQ ID NO: 425 (protein, 3bG4 amino acid sequence) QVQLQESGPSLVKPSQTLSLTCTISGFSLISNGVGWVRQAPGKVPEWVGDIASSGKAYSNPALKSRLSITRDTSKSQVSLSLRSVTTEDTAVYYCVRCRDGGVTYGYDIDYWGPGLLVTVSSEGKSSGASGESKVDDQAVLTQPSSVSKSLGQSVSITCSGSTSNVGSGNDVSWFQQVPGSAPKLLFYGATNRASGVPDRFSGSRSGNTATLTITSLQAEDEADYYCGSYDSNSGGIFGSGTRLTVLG"
  hT40 binding region: "1-15"
